System: MDR1 (P-gp)
Method Description: Blood-brain-barrier (BBB) penetration potential via MDCK-MDR1 permeability assay
Condition Notes: dog, MDCK-MDR1, pH 7.4, MDCK-MDR1: Papp B-A, B-A
Entries and their measured Papp B→A at 120 min, 5 μM follow.
Answer format: numeric, ×10⁻⁶ cm/s implied, no suffix.

                                   compound  tested_target               test_readout  value_observed
0  Cc1cc(=O)c2cc(-c3ccc(N(C)[C@H]4C[C@@H]5CC[C@H]([C@H]4F)N5C)nn3)c(O)cc2o1 [Compound 100B]    MDR1 (P-gp)  Papp B→A at 120 min, 5 μM            38.7
1  Cc1nc2cc(-c3ccc(N(C)[C@H]4C[C@@H]5CC[C@@H](N5)[C@H]4F)nn3)c(O)cc2s1 [Compound 115B]    MDR1 (P-gp)  Papp B→A at 120 min, 5 μM            42.6

Q: # input compound: CN(c1ccc(-c2cc3cnccc3cc2O)nn1)[C@@H]1C[C@H]2CCC[C@H](N2)[C@@H]1F [Compound 121A] ; wanted: its Papp B→A at 120 min, 5 μM
Ans: 29.8

Q: # input compound: Cc1nc2cc(O)c(-c3ccc(N(C)[C@@H]4C[C@H]5CC[C@H](N5)[C@@H]4F)nn3)cc2o1 [Compound 117A] ; wanted: its Papp B→A at 120 min, 5 μM
Ans: 39.9

Q: # input compound: Cc1nc2cc(-c3ccc(N(C)[C@H]4C[C@@H]5CC[C@@H](N5)[C@H]4F)nn3)c(O)cc2c(=O)n1C [Compound 114B] ; wanted: its Papp B→A at 120 min, 5 μM
Ans: 43

Q: # input compound: CN(c1ccc(-c2cc3ccncc3cc2O)nn1)[C@H]1C[C@@H]2CC(F)(F)[C@H](C1)N2 [Compound 125B] ; wanted: its Papp B→A at 120 min, 5 μM
Ans: 53.2

Q: # input compound: Cc1nc2cc(O)c(-c3ccc(N(C)[C@@H]4C[C@H]5CC[C@H](N5)[C@@H]4F)nn3)cc2s1 [Compound 116A] ; wanted: its Papp B→A at 120 min, 5 μM
Ans: 42.9
